Test Method Notes: viability gain of MRP-1-high H69AR cells under doxorubicin, pilot screen, MRP-1 activator project, CellTiter-Glo, duplicate (AID 807);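 also: compound pretreatment 18-22 h then 72 h combined with doxorubicin; 0% = doxorubicin alone and 100% = vehicle without doxorubicin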
Condition Notes: H69AR viability with doxorubicin, CellTiter-Glo luminescence; at 10 µM; hits give high values
Kindly supply the reported viability increase values for the records listed here.
Give the value, in units of %, as a plain number.

The molecule identified as COC(=O)C1C(=O)c2c([nH]c(C(=O)OC3CCCCC3)c2C)CC1C (stereo unspecified) registered its viability increase at 2.69

The molecule identified as "CCOC(=O)c1cnc2c(C)c(Cl)ccc2c1N1CCOCC1" registered its viability increase at -6.05

The molecule identified as "CCCN1CCN(C(=O)Cn2ncc3ccccc32)CC1" registered its viability increase at -2.31

The molecule identified as "O=C(CSc1nc(-c2ccco2)cc(C(F)(F)F)n1)N1CCN(Cc2ccccc2)CC1" registered its viability increase at -4.54

The molecule identified as O=C(C1CCCCN1S(=O)(=O)c1ccc(F)cc1)N1CCN(c2ccccc2F)CC1 (stereo unspecified) registered its viability increase at -1.06

The molecule identified as CCCNC(=O)C1CC(=O)N(c2ccc(OCC(=O)Nc3cccc(C)c3C)cc2)C1 (stereo unspecified) registered its viability increase at -1.99

The molecule identified as O=C(O)c1ccc(NC(=O)C2C3CCC(C3)C2C(=O)O)cc1 (stereo unspecified) registered its viability increase at -0.12

The molecule identified as "O=C(c1c(Cl)nc2sccn12)N1CCCc2ccccc21" registered its viability increase at -0.71

The molecule identified as CCC(CO)Nc1ncnc2c1cnn2-c1ccc(OC)cc1 (stereo unspecified) registered its viability increase at 0.37

The molecule identified as "O=S(=O)(NCCSc1nc2ccccc2o1)c1ccccc1" registered its viability increase at -1.25

The molecule identified as "CC1CCN(CCCn2c(=S)[nH]c3ccccc3c2=O)CC1" registered its viability increase at -2.18

The molecule identified as "Cc1[nH]n2c(=O)c3c(nc2c1-c1ccc(Cl)cc1)CCC3" registered its viability increase at -2.32

The molecule identified as O=C(CC1Oc2ccccc2NC1=O)NC1CC1 (stereo unspecified) registered its viability increase at 0.91

The molecule identified as "COC(=O)C1=C(C)N(c2cc(Cl)cc(Cl)c2)C(=O)C1" registered its viability increase at -6.24

The molecule identified as "COCCn1c(SCC(=O)Nc2ccccc2)nc2c1c(=O)[nH]c(=O)n2C" registered its viability increase at 1.21

The molecule identified as "Cc1nnc(NC(=O)CSc2cn(Cc3ccccc3)c3ccccc23)s1" registered its viability increase at -2.83
